This section presents variants with their documented FACS-Seq fitted mean (log10) values.
B1: library; a variant is named by its letters at N, in order (parent)
chain: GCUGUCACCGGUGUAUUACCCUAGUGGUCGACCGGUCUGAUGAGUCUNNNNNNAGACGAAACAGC

# Variants of: B1
# test: FACS-Seq fitted mean relative fluorescence mCherry/BFP without ligand (log10 relative fluorescence); ligand: hypoxanthine (xanthine aptamer); higher = higher reporter protein expression
# settings: HEK293T, ligand present: no
quantityName: FACS-Seq fitted mean (log10)

alteration: ACCUUG
quantityName: FACS-Seq fitted mean (log10)
observedMeasurement: 0.241
//
alteration: CCAGAA
quantityName: FACS-Seq fitted mean (log10)
observedMeasurement: 0.561
//
alteration: UGGAGU
quantityName: FACS-Seq fitted mean (log10)
observedMeasurement: 0.221
//
alteration: AGCUUG
quantityName: FACS-Seq fitted mean (log10)
observedMeasurement: 0.486
//
alteration: UGAACA
quantityName: FACS-Seq fitted mean (log10)
observedMeasurement: 0.901
//
alteration: CUUGCU
quantityName: FACS-Seq fitted mean (log10)
observedMeasurement: 0.359
//
alteration: AUAGAA
quantityName: FACS-Seq fitted mean (log10)
observedMeasurement: 0.429
//
alteration: GGAGAC
quantityName: FACS-Seq fitted mean (log10)
observedMeasurement: -0.358
//
alteration: UGCUAU
quantityName: FACS-Seq fitted mean (log10)
observedMeasurement: 0.535
//
alteration: AGGACG
quantityName: FACS-Seq fitted mean (log10)
observedMeasurement: 0.233
//
alteration: AAACGA
quantityName: FACS-Seq fitted mean (log10)
observedMeasurement: 0.38
//
alteration: AAGGGC
quantityName: FACS-Seq fitted mean (log10)
observedMeasurement: 0.365
//
alteration: GGGAGC
quantityName: FACS-Seq fitted mean (log10)
observedMeasurement: -0.0404
//
alteration: CUACUA
quantityName: FACS-Seq fitted mean (log10)
observedMeasurement: 0.522
//
alteration: CGACGC
quantityName: FACS-Seq fitted mean (log10)
observedMeasurement: -0.246
//
alteration: UAGAAU
quantityName: FACS-Seq fitted mean (log10)
observedMeasurement: 0.33
//
alteration: AAGACG
quantityName: FACS-Seq fitted mean (log10)
observedMeasurement: -0.0743
//
alteration: CUGUGG
quantityName: FACS-Seq fitted mean (log10)
observedMeasurement: 0.575
//
alteration: GCUGAA
quantityName: FACS-Seq fitted mean (log10)
observedMeasurement: 0.332
//
alteration: GCCAAG
quantityName: FACS-Seq fitted mean (log10)
observedMeasurement: 0.432
//
alteration: CUGAUA
quantityName: FACS-Seq fitted mean (log10)
observedMeasurement: 0.486
//
alteration: ACGAGC
quantityName: FACS-Seq fitted mean (log10)
observedMeasurement: 0.0832
//
alteration: AGGCGG
quantityName: FACS-Seq fitted mean (log10)
observedMeasurement: 0.194
//
alteration: ACUAAG
quantityName: FACS-Seq fitted mean (log10)
observedMeasurement: -0.0198
//
alteration: CGAAUA
quantityName: FACS-Seq fitted mean (log10)
observedMeasurement: 0.459
//
alteration: AAGUCG
quantityName: FACS-Seq fitted mean (log10)
observedMeasurement: -0.00018
//
alteration: UGCCUC
quantityName: FACS-Seq fitted mean (log10)
observedMeasurement: 0.735
//
alteration: GAAGCG
quantityName: FACS-Seq fitted mean (log10)
observedMeasurement: 0.139
//
alteration: GAACCA
quantityName: FACS-Seq fitted mean (log10)
observedMeasurement: 0.493
//
alteration: GAUCAA
quantityName: FACS-Seq fitted mean (log10)
observedMeasurement: 0.497
//
alteration: GGAAUU
quantityName: FACS-Seq fitted mean (log10)
observedMeasurement: 0.904
//
alteration: CCCGGG
quantityName: FACS-Seq fitted mean (log10)
observedMeasurement: 0.92
//
alteration: GACCGU
quantityName: FACS-Seq fitted mean (log10)
observedMeasurement: 0.658
//
alteration: AUAGCG
quantityName: FACS-Seq fitted mean (log10)
observedMeasurement: -0.227
//
alteration: AUACUA
quantityName: FACS-Seq fitted mean (log10)
observedMeasurement: 0.515
//
alteration: GCGUAC
quantityName: FACS-Seq fitted mean (log10)
observedMeasurement: -0.0412
//
alteration: AGAACG
quantityName: FACS-Seq fitted mean (log10)
observedMeasurement: 0.48
//
alteration: UCGUAG
quantityName: FACS-Seq fitted mean (log10)
observedMeasurement: 0.444
//
alteration: CGGGUU
quantityName: FACS-Seq fitted mean (log10)
observedMeasurement: -0.0176
//
alteration: ACCGGG
quantityName: FACS-Seq fitted mean (log10)
observedMeasurement: 0.153
//
alteration: UAUGGU
quantityName: FACS-Seq fitted mean (log10)
observedMeasurement: 0.514
//
alteration: GCUAAG
quantityName: FACS-Seq fitted mean (log10)
observedMeasurement: -0.184
//
alteration: AUGUGU
quantityName: FACS-Seq fitted mean (log10)
observedMeasurement: -0.337
//
alteration: ACAGCG
quantityName: FACS-Seq fitted mean (log10)
observedMeasurement: 0.12
//
alteration: GGUUAG
quantityName: FACS-Seq fitted mean (log10)
observedMeasurement: 0.17
//
alteration: AGACAU
quantityName: FACS-Seq fitted mean (log10)
observedMeasurement: 0.502
//
alteration: UAUCGG
quantityName: FACS-Seq fitted mean (log10)
observedMeasurement: 0.258
//
alteration: AAAUAA
quantityName: FACS-Seq fitted mean (log10)
observedMeasurement: 0.684
//
alteration: CCAUGA
quantityName: FACS-Seq fitted mean (log10)
observedMeasurement: 0.311
//
alteration: AGCACA
quantityName: FACS-Seq fitted mean (log10)
observedMeasurement: -0.251
//
alteration: ACCUAC
quantityName: FACS-Seq fitted mean (log10)
observedMeasurement: 0.113
//
alteration: AUUGUG
quantityName: FACS-Seq fitted mean (log10)
observedMeasurement: 0.0887
//
alteration: UGGCUG
quantityName: FACS-Seq fitted mean (log10)
observedMeasurement: 0.218
//
alteration: AAGGGU
quantityName: FACS-Seq fitted mean (log10)
observedMeasurement: 0.236
//
alteration: GGAUCG
quantityName: FACS-Seq fitted mean (log10)
observedMeasurement: 0.142
//
alteration: AAAAAU
quantityName: FACS-Seq fitted mean (log10)
observedMeasurement: 0.418
//
alteration: UUGCGG
quantityName: FACS-Seq fitted mean (log10)
observedMeasurement: -0.08
//
alteration: AAACGG
quantityName: FACS-Seq fitted mean (log10)
observedMeasurement: 0.034
//
alteration: ACCAAA
quantityName: FACS-Seq fitted mean (log10)
observedMeasurement: 0.2
//
alteration: UCGCCU
quantityName: FACS-Seq fitted mean (log10)
observedMeasurement: -0.0175
//
alteration: CCUGUG
quantityName: FACS-Seq fitted mean (log10)
observedMeasurement: 0.676
//
alteration: AUGACA
quantityName: FACS-Seq fitted mean (log10)
observedMeasurement: 0.303
//
alteration: ACGUGG
quantityName: FACS-Seq fitted mean (log10)
observedMeasurement: 0.0467
//
alteration: ACCGAU
quantityName: FACS-Seq fitted mean (log10)
observedMeasurement: 0.387
//
alteration: CAAGAA
quantityName: FACS-Seq fitted mean (log10)
observedMeasurement: 0.513
//
alteration: UCCCAC
quantityName: FACS-Seq fitted mean (log10)
observedMeasurement: 0.0771
//
alteration: GCGCAG
quantityName: FACS-Seq fitted mean (log10)
observedMeasurement: -0.0972
//
alteration: AGGUUG
quantityName: FACS-Seq fitted mean (log10)
observedMeasurement: 0.0275
//
alteration: GGCGUG
quantityName: FACS-Seq fitted mean (log10)
observedMeasurement: 0.107
//
alteration: GCUGAU
quantityName: FACS-Seq fitted mean (log10)
observedMeasurement: 0.294
//
alteration: GCCGCG
quantityName: FACS-Seq fitted mean (log10)
observedMeasurement: 0.226
//
alteration: CGGGGC
quantityName: FACS-Seq fitted mean (log10)
observedMeasurement: 0.7
//
alteration: UGCAAG
quantityName: FACS-Seq fitted mean (log10)
observedMeasurement: 0.123
//
alteration: GCGACA
quantityName: FACS-Seq fitted mean (log10)
observedMeasurement: 0.145
//
alteration: CGUGCU
quantityName: FACS-Seq fitted mean (log10)
observedMeasurement: 0.599
//
alteration: UGAGGA
quantityName: FACS-Seq fitted mean (log10)
observedMeasurement: 0.402
//
alteration: AUGGAA
quantityName: FACS-Seq fitted mean (log10)
observedMeasurement: 0.751
//
alteration: UAACAG
quantityName: FACS-Seq fitted mean (log10)
observedMeasurement: 0.366
//
alteration: ACCCGG
quantityName: FACS-Seq fitted mean (log10)
observedMeasurement: 0.195
//
alteration: ACAUGA
quantityName: FACS-Seq fitted mean (log10)
observedMeasurement: 0.31
//
alteration: GGAACG
quantityName: FACS-Seq fitted mean (log10)
observedMeasurement: 0.254
//
alteration: CGUACC
quantityName: FACS-Seq fitted mean (log10)
observedMeasurement: 0.313
//
alteration: AUAAAC
quantityName: FACS-Seq fitted mean (log10)
observedMeasurement: 0.413
//
alteration: CGAAAU
quantityName: FACS-Seq fitted mean (log10)
observedMeasurement: 0.0751
//
alteration: ACUGUG
quantityName: FACS-Seq fitted mean (log10)
observedMeasurement: 0.119
//
alteration: GCUGGC
quantityName: FACS-Seq fitted mean (log10)
observedMeasurement: 0.495
//
alteration: GCGUGG
quantityName: FACS-Seq fitted mean (log10)
observedMeasurement: 0.196
//
alteration: GAAUUG
quantityName: FACS-Seq fitted mean (log10)
observedMeasurement: 0.0724
//
alteration: AGUAGA
quantityName: FACS-Seq fitted mean (log10)
observedMeasurement: 0.394
//
alteration: AUUACA
quantityName: FACS-Seq fitted mean (log10)
observedMeasurement: 0.157
//
alteration: GGACAA
quantityName: FACS-Seq fitted mean (log10)
observedMeasurement: 0.0221
